B1: HDV Ribozyme (parent)
chain: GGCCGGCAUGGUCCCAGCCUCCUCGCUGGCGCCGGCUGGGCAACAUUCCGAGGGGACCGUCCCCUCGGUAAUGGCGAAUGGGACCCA

variants of: B1; experiment: self-cleavage, relative activity (ratio to wild type); higher = more cleavage; co-transcriptional
Record form. Attribute: self-cleavage. Fill in for each entry.

*Q* // Input: GGCCGGCAUGGUCCCAGCCUCCUCGCUUGCGCCGGCUGGGCAACAUUCCGAGGGGACCCUCCCCUCGGUAAUGGCGAAUGGGACCCA [G28U G59C] . Output its self-cleavage only.
*A* 0.136

*Q* Return the recorded self-cleavage value; entry: GGCCGGCAUGGUCCCAGCCUGCUCGCUGGCGCCGGCUGGGCAACAUUCCGAGGGGACCGUCCCCUCGGUAAUGGCCAAUGGGACCCA [C21G G76C]
*A* 0

*Q* Provide only the value of recorded self-cleavage for GGCAGGCAUGGUCCCAGCCUCCGCGCUGGCGCCGGCUGGGCAACAUUCCGAGGGGACCGUCCCCUCGGUAAUGGCGAAUGGGACCCA [C4A U23G]
*A* 0.0449

*Q* Entry GGCCGGCAUGGUCCCAUCCUCCUCGCUGGCGCCGGCUGGGCAACAUUCCGAGUGGACCGUCCCCUCGGUAAUGGCGAAUGGGACCCA [G17U G53U] needs its self-cleavage filled in; supply it.
*A* 0.42

*Q* Let me know recorded self-cleavage for GGCCGGCAUGGUCCCAGCCUCCUCGCUCGCGCCGGCUGGGCAACAUUCCGAGGGGACCGUCCCCGCGGUAAUGGCGAAUGGGACCCA [G28C U65G] , thanks.
*A* 0.0665

*Q* Kindly indicate its recorded self-cleavage. Item: GGCCGGCAUGGUCCCAGCCUCCUCGCUGGCGCCGGCUGGGCAACAUUCCGAGGGUACCGUCCCCUCGGUAAUGGAGAAUGGGACCCA [G55U C75A]
*A* 0.153

*Q* Annotate the variant GGCCGGCAUGGUCCCGGCCUCCUCGCUGGCGCCGGAUGGGCAACAUUCCGAGGGGACCGUCCCCUCGGUAAUGGCGAAUGGGACCCA [A16G C36A] with its measured self-cleavage.
*A* 0.229

*Q* Consider the variant GGCCGGCACGGUCCCAGCCUCCUCGCUGGCGGCGGCUGGGCAACAUUCCGAGGGGACCGUCCCCUCGGUAAUGGCGAAUGGGACCCA [U9C C32G] and give its recorded self-cleavage.
*A* 0

*Q* For GGCCGGCUUGGUCCCAGCCUCCUCGCUGGCGCCGGCUGGGCAUCAUUCCGAGGGGACCGUCCCCUCGGUAAUGGCGAAUGGGACCCA [A8U A43U] , write its self-cleavage.
*A* 0.125

*Q* Provide only the value of recorded self-cleavage for GGCCGGCAUGGUCCCAGCCUCCUCGCUGGCGCCGGCUGGGCAACAUUCCGAGGGGACCUUCCCCUCGGUAAUGGCGAAUGGGGCCCA [G59U A83G]
*A* 0.732
